Source: patent US9828368B2

# assayed-target: hOX1R (Homo sapiens)
# assay-explanation: FLIPR Ca2+ flux assay, hOX1R
# Assay type: cell-based
# details: CHO cells; agonist 70 pM Ala-6,12 orexin-A; rat orexin-1 receptor; read-out: hOX1R FLIPR IC50
pIC50: −log10 of the molar value.
Think of 6 as a floor: if pIC50 stands on it or above, it is Fulfilled; beneath it, Not fulfilled.

Some solved entries appear below for comparison.
C[C@@H]1CC[C@@H](c2nc(CO)c(-c3ccccc3)o2)CN1C(=O)c1ccccc1-n1nccn1 : Fulfilled
C[C@@H]1CC[C@@H](c2nc(C#N)c(Br)o2)CN1C(=O)c1ccccc1-n1nccn1 : Not fulfilled
Cc1oc([C@@H]2CC[C@@H](C)N(C(=O)c3ccsc3-n3nccn3)C2)nc1C(C)(C)O : Not fulfilled
COC(=O)C1CC1c1coc([C@@H]2CC[C@@H](C)N(C(=O)c3ccccc3-n3nccn3)C2)n1 (stereo partly drawn) : Not fulfilled
C[C@@H]1CC[C@@H](c2nc(-c3ccccc3)co2)CN1C(=O)c1ccccc1-n1nccn1 : Fulfilled

Given the entry CC(O)c1nc([C@@H]2CC[C@@H](C)N(C(=O)c3ccccc3-n3nccn3)C2)oc1-c1ccccc1 (single isomer, unassigned) [Example 64] , answer whether its pIC50 meets or surpasses 6.
Fulfilled

Given the entry `C[C@@H]1CC[C@@H](c2ncc(C(C)(C)C)o2)CN1C(=O)c1ccccc1-n1nccn1` , answer whether its pIC50 meets or surpasses 6.
Fulfilled

Given the entry `Cc1oc([C@@H]2CC[C@@H](C)N(C(=O)c3ccccc3C3(C#N)CCOCC3)C2)nc1C(C)(C)O` , answer whether its pIC50 meets or surpasses 6.
Not fulfilled

Given the entry `Cc1ccc(-n2nccn2)c(C(=O)N2C[C@H](c3ncc(C)o3)CC[C@H]2C)c1` , answer whether its pIC50 meets or surpasses 6.
Not fulfilled

Given the entry `C[C@@H]1CC[C@@H](c2nc(C(C)(C)O)co2)CN1C(=O)c1ccccc1-n1nccn1` , answer whether its pIC50 meets or surpasses 6.
Not fulfilled

Given the entry `CC[C@](C)(O)c1nc([C@@H]2CC[C@@H](C)N(C(=O)c3ccsc3-n3nccn3)C2)oc1C` , answer whether its pIC50 meets or surpasses 6.
Not fulfilled

Given the entry `CCOc1ncccc1C(=O)N1C[C@H](c2nc(C(C)(C)O)c(C)o2)CC[C@H]1C` , answer whether its pIC50 meets or surpasses 6.
Not fulfilled
